Just for reference, PubChem BioAssay AID1963839 is where these values come from.

Test system: 817829-284-R-J1-PDC complex spheroid viability;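 further: spheroids exposed to compounds for 7 days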
Assay: Anticancer human tumor 817829-284-R-J1-PDC patient-derived colon adenocarcinoma cell line growth inhibition [POLQ]
Settings: second compound 10 µM; first compound 0.001 µM; active compounds read low
For each record, check the reported viability, T/C: if it is below 90% write YES, else write NO.

Task: Lab log: compare recorded viability, T/C with 90%; is it strictly lower for Cn1ncnc1[C@H]1c2n[nH]c(=O)c3cc(F)cc(c23)N[C@@H]1c1ccc(F)cc1 + Cc1cccc(N(C)C(=O)C2C(O)CCN2c2nc(C)cc(C(F)(F)F)c2C#N)c1 ?
Output: YES

Task: Queued: CC[C@@]1(O)C(=O)OCc2c1cc1n(c2=O)Cc2cc3c(CN(C)C)c(O)ccc3nc2-1 + Cc1cccc(N(C)C(=O)C2C(O)CCN2c2nc(C)cc(C(F)(F)F)c2C#N)c1
Output: NO

New cases:
Task: In plain terms, does Cn1ncnc1[C@H]1c2n[nH]c(=O)c3cc(F)cc(c23)N[C@@H]1c1ccc(F)cc1 + Nc1ccc(C#CCN(C(=O)Cc2ncc(C(F)(F)F)cc2C(F)(F)F)c2ccc(F)cc2)nn1 come in under 90% for viability, T/C?
Output: YES

Task: Next record, please: Cn1ncnc1[C@H]1c2n[nH]c(=O)c3cc(F)cc(c23)N[C@@H]1c1ccc(F)cc1 + COC1C(OC(N)=O)C(O)C(Oc2ccc3c(O)c(NC(=O)c4ccc(O)c(CC=C(C)C)c4)c(=O)oc3c2C)OC1(C)C
Output: NO
